Source listed as patent US8415351B2.

Overview of recorded pIC50 for various compounds
molecular target: HCV polymerase 1B (Δ21 NS5B, BK) (Hepatitis C virus genotype 1b); construct: 20 to 50 nM Δ21 NS5B; assay: biochemical
Sequence (P26663 2420-2989, stated change not applied): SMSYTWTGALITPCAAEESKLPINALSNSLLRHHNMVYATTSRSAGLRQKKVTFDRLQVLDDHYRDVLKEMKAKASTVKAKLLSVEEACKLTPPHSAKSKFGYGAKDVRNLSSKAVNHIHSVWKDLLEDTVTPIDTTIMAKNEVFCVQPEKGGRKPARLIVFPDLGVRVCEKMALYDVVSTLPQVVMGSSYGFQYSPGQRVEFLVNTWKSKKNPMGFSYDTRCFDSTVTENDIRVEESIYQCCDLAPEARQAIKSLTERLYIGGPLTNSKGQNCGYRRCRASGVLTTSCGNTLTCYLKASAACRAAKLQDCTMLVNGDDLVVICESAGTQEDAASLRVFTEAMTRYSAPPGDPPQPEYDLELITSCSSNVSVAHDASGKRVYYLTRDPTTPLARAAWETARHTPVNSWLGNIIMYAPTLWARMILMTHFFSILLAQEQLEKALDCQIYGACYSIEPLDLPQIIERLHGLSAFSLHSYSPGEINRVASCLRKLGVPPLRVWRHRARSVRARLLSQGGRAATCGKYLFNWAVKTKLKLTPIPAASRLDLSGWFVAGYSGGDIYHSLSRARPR
pIC50: −log10 of the molar value.

{"compound": "COc1c(-c2ccc3cc(CNS(C)(=O)=O)sc3c2)cc(-n2ccc(=O)[nH]c2=O)cc1C(C)(C)C", "assay_value": "6.00 to 7.00"}
{"compound": "COc1c(C(=O)Nc2cccc(CNS(C)(=O)=O)c2)cc(N2CCC(=O)NC2=O)cc1C(C)(C)C", "assay_value": "6.00 to 7.00"}
{"compound": "COc1c(-c2ccc3c(c2)CC[C@H]3C(C)(C)NS(C)(=O)=O)cc(-n2ccc(=O)[nH]c2=O)cc1C(C)(C)C (single isomer, unassigned)", "assay_value": "6.00 to 7.00"}
{"compound": "COc1c(C#Cc2ccc(NS(C)(=O)=O)cn2)cc(N2CCC(=O)NC2=O)cc1C(C)(C)C", "assay_value": "7.00 to 8.00"}
{"compound": "COc1c(C#Cc2cnc(NS(C)(=O)=O)cn2)cc(-n2ccc(=O)[nH]c2=O)cc1C(C)(C)C", "assay_value": "7.00 to 8.00"}

Q: Tell me the measured pIC50 of `CC(C)(C)c1cc(-n2ccc(=O)[nH]c2=O)cc(C(=O)Nc2ccc(NS(C)(=O)=O)cc2)c1O` , please.
Result: > 8.00

Q: Tell me the measured pIC50 of `COc1c(-c2ccc(/C(C)=N/NS(C)(=O)=O)cc2)cc(-n2ccc(=O)[nH]c2=O)cc1C(C)(C)C` , please.
Result: 7.00 to 8.00

Q: Tell me the measured pIC50 of `COc1c(-c2ccc3c(CNS(C)(=O)=O)csc3c2)cc(-n2ccc(=O)[nH]c2=O)cc1C(C)(C)C` , please.
Result: > 8.00

Q: Tell me the measured pIC50 of `COc1c(C#Cc2ccc(NS(C)(=O)=O)cc2C(=O)N2CCOCC2)cc(-n2ccc(=O)[nH]c2=O)cc1C(C)(C)C` , please.
Result: 7.00 to 8.00

Q: Tell me the measured pIC50 of `COC(=O)N(c1ccc(NC(=O)c2cc(N3CCC(=O)NC3=O)cc(C(C)(C)C)c2OC)cc1)S(C)(=O)=O` , please.
Result: < 6.00

Q: Tell me the measured pIC50 of `CC(C)CS(=O)(=O)Nc1ccc(NC(=O)c2cc(N3CCC(=O)NC3=O)cc(C(C)(C)C)c2O)cc1` , please.
Result: 7.00 to 8.00
